All figures here come from ChEMBL document CHEMBL4673209.

- protocol: Protein binding in rat plasma
- Assay type: ADME, cell-free
- condition.summary: read-out: PPB (converted)
readout.type: fraction unbound
Number, no unit, nothing else.

Query: Any idea what fraction unbound was measured for "COc1cc(-c2ncc(COc3cccc([C@@H](CC(=O)O)C4CC4)c3)nc2CC(C)C)c(F)cn1" ?
Reply: 0.0009

----------
- protocol: Protein binding in human plasma
- Type: ADME, cell-free
- condition.summary: read-out: PPB (converted)
readout.type: fraction unbound
Answer with a bare number; do not write a unit.

Query: Find the recorded fraction unbound belonging to "COc1cc(-c2ncc(COc3cccc([C@@H](CC(=O)O)C4CC4)c3)nc2CC(C)C)c(F)cn1" and report it.
Reply: 0.0012
